procedure details: self-splicing fitness, log relative to wild type (ln ratio); higher = more splicing; Tetrahymena group I intron in knt gene, E. coli kanamycin selection, DiMSum; sequences stand for … in CUCUCU…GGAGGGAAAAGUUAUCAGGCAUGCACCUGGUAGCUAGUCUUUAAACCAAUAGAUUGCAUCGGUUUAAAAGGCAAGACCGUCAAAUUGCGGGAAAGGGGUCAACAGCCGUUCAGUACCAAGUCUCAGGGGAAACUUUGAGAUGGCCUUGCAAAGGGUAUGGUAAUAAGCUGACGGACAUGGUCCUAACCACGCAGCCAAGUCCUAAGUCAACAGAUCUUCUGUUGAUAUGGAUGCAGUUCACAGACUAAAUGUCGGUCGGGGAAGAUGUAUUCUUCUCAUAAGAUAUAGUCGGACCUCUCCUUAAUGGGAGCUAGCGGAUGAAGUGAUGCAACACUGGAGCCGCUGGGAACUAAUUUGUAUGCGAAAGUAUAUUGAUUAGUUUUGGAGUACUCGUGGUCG;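 also: selection with 25 µg/mL kanamycin versus none on LB agar overnight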
condition: 37 °C
Kind request: treat -0.4 as inclusive, so self-splicing fitness (ln) at -0.4 or higher is yes (1), anything lower is no (0).

Example entries begin here.
{"query sequence": "GCACAGCAAUAUUACGGCCA", "label": "no (0)"}
{"query sequence": "CCGAAGCAAUAUUACGGGGG", "label": "no (0)"}
{"query sequence": "ACUAAGCAAUAUUACGAGCG", "label": "yes (1)"}
{"query sequence": "CAUAAGCAAUAUUACGUUCG", "label": "yes (1)"}
{"query sequence": "AGUAAGCAAUAUUACGGACU", "label": "yes (1)"}
{"query sequence": "UGUUAGCAAUAUUACGUGGG", "label": "no (0)"}

[in] self-splicing fitness (ln) >= -0.4 for `CAAGAGCAAUAUUACGGGGC` ?
[out] no (0)

[in] self-splicing fitness (ln) >= -0.4 for `GAAUAGCAAUAUUACGCCUG` ?
[out] no (0)

----------
// values below are reported self-splicing fitness (ln)
procedure details: self-splicing fitness, log relative to wild type (ln ratio); higher = more splicing; Tetrahymena group I intron in knt gene, E. coli kanamycin selection, DiMSum; sequences stand for … in CUCUCU…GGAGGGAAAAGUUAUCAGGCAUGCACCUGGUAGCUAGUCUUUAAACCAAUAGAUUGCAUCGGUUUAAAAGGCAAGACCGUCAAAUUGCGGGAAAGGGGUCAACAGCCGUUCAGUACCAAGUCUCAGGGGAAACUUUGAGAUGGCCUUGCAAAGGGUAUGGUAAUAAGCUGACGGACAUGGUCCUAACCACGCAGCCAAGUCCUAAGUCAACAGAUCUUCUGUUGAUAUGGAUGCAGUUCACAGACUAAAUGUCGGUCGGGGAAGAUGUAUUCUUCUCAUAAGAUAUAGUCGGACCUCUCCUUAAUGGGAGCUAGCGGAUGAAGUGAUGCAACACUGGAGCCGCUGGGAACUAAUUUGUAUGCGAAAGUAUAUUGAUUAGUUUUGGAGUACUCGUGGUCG
condition: 30 °C
Lab note: record just the number, no unit beside it.

{"query sequence": "GGUCAGCAAUAUUACGCCUC", "property": "self-splicing fitness (ln)", "recorded number": -0.643}

# sequence `UCUAAGCAAUAUUACGUAGG` ; its self-splicing fitness (ln) = -1.65

# sequence `UCUUAGCAAUAUUACGGCGU` ; its self-splicing fitness (ln) = -0.535

# sequence `CCGCAGCAAUAUUACGGUCA` ; its self-splicing fitness (ln) = -3.47

# sequence `CGGUAGCAAUAUUACGAGUU` ; its self-splicing fitness (ln) = -3.87

# sequence `CGACAGCAAUAUUACGAGCU` ; its self-splicing fitness (ln) = -2.86

# sequence `CGCCAGCAAUAUUACGUGCG` ; its self-splicing fitness (ln) = -3.99

# sequence `AAGUAGCAAUAUUACGUAAG` ; its self-splicing fitness (ln) = -2.48
